conditions used: in DMSO, 313.15 K
value type: solubility (mole fraction)
Numbers only.

Q. Data request, read-out solubility (mole fraction), for "c1ccc2c(c1)CCc1ccccc1N2"
A. 0.0391

---

conditions used: in DMSO, 308.15 K
value type: solubility (mole fraction)
Answers are plain numbers.

Q. Quick one: solubility (mole fraction) for "c1ccc2c(c1)CCc1ccccc1N2" ?
A. 0.0336

---

conditions used: in water, 283.15 K
value type: solubility (mole fraction)
One number for each entry.

Q. Entry "c1ccc2c(c1)CCc1ccccc1N2" : reported solubility (mole fraction) = ?
A. 8.4e-07

---

conditions used: in ethanol, 313.15 K
value type: solubility (mole fraction)
One number for each entry.

Q. For the compound shown here, "c1ccc2c(c1)CCc1ccccc1N2" , give the reported solubility (mole fraction).
A. 0.0036

---

conditions used: in water, 293.15 K
value type: solubility (mole fraction)
Answers are plain numbers.

Q. Any idea what its solubility (mole fraction) is? The molecule is "c1ccc2c(c1)CCc1ccccc1N2"
A. 1.83e-06

---

conditions used: in isopropanol, 308.15 K
value type: solubility (mole fraction)
Numbers only.

Q. Please look up its solubility (mole fraction): "c1ccc2c(c1)CCc1ccccc1N2"
A. 0.00161

---

conditions used: in DMSO, 293.15 K
value type: solubility (mole fraction)
Give bare numbers.

Q. Recorded solubility (mole fraction) for "c1ccc2c(c1)CCc1ccccc1N2" , please?
A. 0.0199

---

conditions used: in ethanol, 303.15 K
value type: solubility (mole fraction)

Q. // returns reported solubility (mole fraction) for input "c1ccc2c(c1)CCc1ccccc1N2"
A. 0.00227

---

conditions used: in isopropanol, 313.15 K
value type: solubility (mole fraction)
Numbers only.

Q. // lookup solubility (mole fraction) for "c1ccc2c(c1)CCc1ccccc1N2"
A. 0.00204

---

conditions used: in DMSO, 298.15 K
value type: solubility (mole fraction)

Q. Suppose we examine the compound "c1ccc2c(c1)CCc1ccccc1N2" ; what solubility (mole fraction) value has been reported?
A. 0.0239

---

conditions used: in isopropanol, 293.15 K
value type: solubility (mole fraction)
One number for each entry.

Q. Which solubility (mole fraction) reading was recorded for the molecule "c1ccc2c(c1)CCc1ccccc1N2" ?
A. 0.000783

---

conditions used: in ethylene glycol, 308.15 K
value type: solubility (mole fraction)
One number for each entry.

Q. What value of solubility (mole fraction) has been recorded for this entry: "c1ccc2c(c1)CCc1ccccc1N2"
A. 0.000722

---

conditions used: in ethanol, 298.15 K
value type: solubility (mole fraction)

Q. What value of solubility (mole fraction) has been reported for the following compound? "c1ccc2c(c1)CCc1ccccc1N2"
A. 0.00175

---

conditions used: in isopropanol, 283.15 K
value type: solubility (mole fraction)

Q. Given "c1ccc2c(c1)CCc1ccccc1N2" , state its recorded solubility (mole fraction).
A. 0.000448

---

conditions used: in water, 313.15 K
value type: solubility (mole fraction)
Numbers only.

Q. Name the reported solubility (mole fraction) value associated with the compound "c1ccc2c(c1)CCc1ccccc1N2"
A. 7.42e-06

---

conditions used: in water, 288.15 K
value type: solubility (mole fraction)
Answers are plain numbers.

Q. Param item = "c1ccc2c(c1)CCc1ccccc1N2" ; retrieve measured solubility (mole fraction).
A. 1.27e-06

---

conditions used: in DMSO, 318.15 K
value type: solubility (mole fraction)
Numbers only.

Q. Endpoint output: solubility (mole fraction) of "c1ccc2c(c1)CCc1ccccc1N2" . Value?
A. 0.045

---

conditions used: in DMSO, 328.15 K
value type: solubility (mole fraction)
Numbers only.

Q. Can you share its solubility (mole fraction)? I mean this compound: "c1ccc2c(c1)CCc1ccccc1N2"
A. 0.0592

---

conditions used: in ethanol, 288.15 K
value type: solubility (mole fraction)
Numbers only.

Q. # get_value(readout='solubility (mole fraction)', item= "c1ccc2c(c1)CCc1ccccc1N2" )
A. 0.00102

---

conditions used: in ethylene glycol, 293.15 K
value type: solubility (mole fraction)
Answers are plain numbers.

Q. Given "c1ccc2c(c1)CCc1ccccc1N2" , state its recorded solubility (mole fraction).
A. 0.000494

---

conditions used: in isopropanol, 328.15 K
value type: solubility (mole fraction)
Answers are plain numbers.

Q. # lookup: solubility (mole fraction) of "c1ccc2c(c1)CCc1ccccc1N2"
A. 0.00388

---

conditions used: in water, 308.15 K
value type: solubility (mole fraction)
Numbers only.

Q. Look at this compound and give its reported solubility (mole fraction). "c1ccc2c(c1)CCc1ccccc1N2"
A. 5.41e-06

---

conditions used: in isopropanol, 288.15 K
value type: solubility (mole fraction)
One number for each entry.

Q. Would you kindly share the measured solubility (mole fraction) for "c1ccc2c(c1)CCc1ccccc1N2" ?
A. 0.000585

---

conditions used: in ethanol, 293.15 K
value type: solubility (mole fraction)
One number for each entry.

Q. # solubility (mole fraction) lookup, item "c1ccc2c(c1)CCc1ccccc1N2"
A. 0.00136

---

conditions used: in DMSO, 303.15 K
value type: solubility (mole fraction)
Numbers only.

Q. Quick one: solubility (mole fraction) of "c1ccc2c(c1)CCc1ccccc1N2" ?
A. 0.0285

---

conditions used: in isopropanol, 303.15 K
value type: solubility (mole fraction)
Answers are plain numbers.

Q. # lookup: solubility (mole fraction) of "c1ccc2c(c1)CCc1ccccc1N2"
A. 0.00127

---

conditions used: in ethylene glycol, 298.15 K
value type: solubility (mole fraction)

Q. Please look up its solubility (mole fraction): "c1ccc2c(c1)CCc1ccccc1N2"
A. 0.000566

---

conditions used: in isopropanol, 323.15 K
value type: solubility (mole fraction)

Q. Can you share its solubility (mole fraction)? I mean this compound: "c1ccc2c(c1)CCc1ccccc1N2"
A. 0.00314

---

conditions used: in ethylene glycol, 288.15 K
value type: solubility (mole fraction)
Numbers only.

Q. # solubility (mole fraction) lookup, item "c1ccc2c(c1)CCc1ccccc1N2"
A. 0.000427

---

conditions used: in isopropanol, 298.15 K
value type: solubility (mole fraction)
Answers are plain numbers.

Q. Query: solubility (mole fraction); subject: "c1ccc2c(c1)CCc1ccccc1N2"
A. 0.000992

---

conditions used: in ethylene glycol, 313.15 K
value type: solubility (mole fraction)
One number for each entry.

Q. // query solubility (mole fraction) value for entry "c1ccc2c(c1)CCc1ccccc1N2"
A. 0.000812

---

conditions used: in ethylene glycol, 323.15 K
value type: solubility (mole fraction)
Numbers only.

Q. For the compound shown here, "c1ccc2c(c1)CCc1ccccc1N2" , give the reported solubility (mole fraction).
A. 0.00101

---

conditions used: in water, 328.15 K
value type: solubility (mole fraction)
Numbers only.

Q. Fill in: solubility (mole fraction) of "c1ccc2c(c1)CCc1ccccc1N2" is ___
A. 1.87e-05

---

conditions used: in water, 303.15 K
value type: solubility (mole fraction)
Numbers only.

Q. Which solubility (mole fraction) reading was recorded for the compound "c1ccc2c(c1)CCc1ccccc1N2" ?
A. 3.77e-06
